target: Neuronal acetylcholine receptor; alpha9/alpha10 (Homo sapiens) (UniProt Q9UGM1+Q9GZZ6); assay: Antagonist activity at human alpha9alpha10 nAChR expressed in Xenopus laevis oocytes assessed as inhibition of ACh-induced current amplitude at -80 mV holding potential at 100 nM by two-electrode voltage clamp method; type: cell-based; settings: Oocyte, filed as antagonist
Activity calls are given as the source filed them. The calls are words filed in the database; no cut-off is given here. Positions of bridges follow the written chain, without caps; N, C: chain ends. Non-standard residues stand in square brackets, D forms with d. Residues, ends and D or L forms follow the SMILES beside them. ξ: configuration not given here. Dap = NC[C@H](N)C(=O)O; ξDab = NCCC(N)C(=O)O; ξDap = NCC(N)C(=O)O

Compound | Study target | inhibition
CC[C@H](C)[C@@H]1NC(=O)[C@H](CC(=O)O)NC(=O)[C@@H]2CCCN2C(=O)[C@H](CC(N)=O)NC(=O)[C@H](CC(N)=O)NC(=O)C(CCN)NC(=O)[C@H](CO)NC(=O)[C@@H]2CSSC[C@H](NC(=O)CN)C(=O)N[C@@H](CSSC[C@@H](C(N)=O)NC1=O)C(=O)N[C@@H](CO)C(=O)N[C@@H](Cc1cnc[nH]1)C(=O)N1CCC[C@H]1C(=O)N[C@@H](C)C(=O)N2 (stereo partly drawn) (H-GCCSHPACS[ξDab]NNPDIC-NH2; disulfide 2-8, 3-16) | Neuronal acetylcholine receptor; alpha9/alpha10 (Homo sapiens) (UniProt Q9UGM1+Q9GZZ6) | Active
CC[C@H](C)[C@@H]1NC(=O)[C@H](CC(=O)O)NC(=O)[C@@H]2CCCN2C(=O)[C@H](CC(N)=O)NC(=O)[C@H](CC(N)=O)NC(=O)[C@H](C(C)C)NC(=O)C(CN)NC(=O)[C@@H]2CSSC[C@H](NC(=O)CN)C(=O)N[C@@H](CSSC[C@@H](C(N)=O)NC1=O)C(=O)N[C@@H](CO)C(=O)N[C@@H](Cc1cnc[nH]1)C(=O)N1CCC[C@H]1C(=O)N[C@@H](C)C(=O)N2 (stereo partly drawn) (H-GCCSHPAC[ξDap]VNNPDIC-NH2; disulfide 2-8, 3-16) | Neuronal acetylcholine receptor; alpha9/alpha10 (Homo sapiens) (UniProt Q9UGM1+Q9GZZ6) | 80%
CC[C@H](C)[C@@H]1NC(=O)[C@H](CC(=O)O)NC(=O)[C@@H]2CCCN2C(=O)[C@H](CC(N)=O)NC(=O)[C@H](CC(N)=O)NC(=O)[C@H](C(C)C)NC(=O)[C@H](CN)NC(=O)[C@@H]2CSSC[C@H](NC(=O)CN)C(=O)N[C@@H](CSSC[C@@H](C(N)=O)NC1=O)C(=O)N[C@@H](CO)C(=O)N[C@@H](Cc1c[nH]cn1)C(=O)N1CCC[C@H]1C(=O)N[C@@H](C)C(=O)N2 (H-GCCSHPAC[Dap]VNNPDIC-NH2; disulfide 2-8, 3-16) | Neuronal acetylcholine receptor; alpha9/alpha10 (Homo sapiens) (UniProt Q9UGM1+Q9GZZ6) | Active

---

Measured inhibition, listed per entry.
target: Neuronal acetylcholine receptor; alpha9/alpha10 (Homo sapiens) (UniProt Q9UGM1+Q9GZZ6); assay: Antagonist activity at human alpha9alpha10 nAChR expressed in Xenopus laevis oocytes assessed as inhibition of ACh-induced current amplitude at -80 mV holding potential at 100 nM by two-electrode voltage clamp method; format: cell-based; conditions: Oocyte, filed as antagonist
Positions of bridges follow the written chain, without caps; N, C: chain ends. Residues, ends and D or L forms follow the SMILES beside them.

Compound | Study target | Comparator | inhibition / %
CC[C@H](C)[C@@H]1NC(=O)[C@H](CC(=O)O)NC(=O)[C@@H]2CCCN2C(=O)[C@H](CC(N)=O)NC(=O)[C@H](CC(N)=O)NC(=O)[C@H](C(C)C)NC(=O)[C@H](CO)NC(=O)[C@@H]2CSSC[C@H](NC(=O)CN)C(=O)N[C@@H](CSSC[C@@H](C(N)=O)NC1=O)C(=O)N[C@@H](CCCNC(=N)N)C(=O)N[C@@H](Cc1cnc[nH]1)C(=O)N1CCC[C@H]1C(=O)N[C@@H](C)C(=O)N2 (H-GCCRHPACSVNNPDIC-NH2; disulfide 2-8, 3-16) | Neuronal acetylcholine receptor; alpha9/alpha10 (Homo sapiens) (UniProt Q9UGM1+Q9GZZ6) | > | 85
CC[C@H](C)[C@@H]1NC(=O)[C@H](CC(=O)O)NC(=O)[C@@H]2CCCN2C(=O)[C@H](CC(N)=O)NC(=O)[C@H](CC(N)=O)NC(=O)[C@H](CCCNC(=N)N)NC(=O)[C@H](CO)NC(=O)[C@@H]2CSSC[C@H](NC(=O)CN)C(=O)N[C@@H](CSSC[C@@H](C(N)=O)NC1=O)C(=O)N[C@@H](CO)C(=O)N[C@@H](Cc1cnc[nH]1)C(=O)N1CCC[C@H]1C(=O)N[C@@H](C)C(=O)N2 (H-GCCSHPACSRNNPDIC-NH2; disulfide 2-8, 3-16) | Neuronal acetylcholine receptor; alpha9/alpha10 (Homo sapiens) (UniProt Q9UGM1+Q9GZZ6) | = | 60
